System: THP-1
Assay details: THP-1 cell loss relative to DMSO control; higher = more host cell loss (toxicity); extreme values may be limits of the assay
Stated conditions: 10 µM; 4 days; infection: M. tuberculosis H37Rv
Counter-ions that a name gives are not always drawn.
Result type: THP-1 cell loss (%)
# unit: % | format: bare number

CCN1/C(=C/C(C)=O)Sc2ccc(OC)cc21 :: 12.5
O=C(c1ccc(Nc2nccc(-c3cc4ccccc4s3)n2)cc1)N1CCC(N2CCCC2)CC1 :: 100
Cc1ccccc1C(=O)c1ccc(Nc2ccc(Br)cc2N)cc1Cl :: 16.5
C#Cc1cccc(Nc2ncnc3cc(OCCOC)c(OCCOC)cc23)c1 [Erlotinib HCl] :: 5.26

Kindly indicate its recorded THP-1 cell loss. Item: `COc1cc2nccc(Oc3ccc(NC(=O)Nc4ccc(F)cc4F)c(F)c3)c2cc1OC`
8.51
